B1: glmS ribozyme (parent)
chain: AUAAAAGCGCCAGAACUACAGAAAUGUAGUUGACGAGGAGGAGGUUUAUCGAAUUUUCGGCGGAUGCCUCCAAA

Variants of: B1
Experiment: self-cleavage kobs at 160 uM GlcN6P; higher = faster cleavage; RNA array
Settings: with glucosamine-6-phosphate
Variants at the floor of the assay were thinned out.

>  <mutation_list>
A15G A48U U57C

>  <self-cleavage kobs at 160 uM GlcN6P>
< 1e-05 s⁻¹

$$$$
>  <mutation_list>
G9A U65G

>  <self-cleavage kobs at 160 uM GlcN6P>
< 1e-05 s⁻¹

$$$$
>  <mutation_list>
C16A U54A C67A

>  <self-cleavage kobs at 160 uM GlcN6P>
4.32e-05 s⁻¹

$$$$
>  <mutation_list>
A14C U54C U57A G60A C70U

>  <self-cleavage kobs at 160 uM GlcN6P>
< 1e-05 s⁻¹

$$$$
>  <mutation_list>
A12U A15G C16G U30C A33U A48G G66A

>  <self-cleavage kobs at 160 uM GlcN6P>
< 1e-05 s⁻¹

$$$$
>  <mutation_list>
A12C U55C

>  <self-cleavage kobs at 160 uM GlcN6P>
0.000402 s⁻¹

$$$$
>  <mutation_list>
G60C C67G

>  <self-cleavage kobs at 160 uM GlcN6P>
< 1e-05 s⁻¹

$$$$
>  <mutation_list>
A15C U57G

>  <self-cleavage kobs at 160 uM GlcN6P>
< 1e-05 s⁻¹

$$$$
>  <mutation_list>
G13U A15G G35C A52U

>  <self-cleavage kobs at 160 uM GlcN6P>
< 1e-05 s⁻¹

$$$$
>  <mutation_list>
C10A G32C G51U

>  <self-cleavage kobs at 160 uM GlcN6P>
< 1e-05 s⁻¹

$$$$
>  <mutation_list>
U56C C61A

>  <self-cleavage kobs at 160 uM GlcN6P>
< 1e-05 s⁻¹

$$$$
>  <mutation_list>
U54G G62U

>  <self-cleavage kobs at 160 uM GlcN6P>
< 1e-05 s⁻¹

$$$$
>  <mutation_list>
A48C A64C

>  <self-cleavage kobs at 160 uM GlcN6P>
< 1e-05 s⁻¹

$$$$
>  <mutation_list>
C10A G40A

>  <self-cleavage kobs at 160 uM GlcN6P>
< 1e-05 s⁻¹

$$$$
>  <mutation_list>
C10U G13C

>  <self-cleavage kobs at 160 uM GlcN6P>
< 1e-05 s⁻¹

$$$$
>  <mutation_list>
U30G G40U

>  <self-cleavage kobs at 160 uM GlcN6P>
6.94e-05 s⁻¹

$$$$
>  <mutation_list>
C16G A42G

>  <self-cleavage kobs at 160 uM GlcN6P>
0.000208 s⁻¹

$$$$
>  <mutation_list>
G7C G32C G41U U47G U56C

>  <self-cleavage kobs at 160 uM GlcN6P>
< 1e-05 s⁻¹

$$$$
>  <mutation_list>
U46G U54A

>  <self-cleavage kobs at 160 uM GlcN6P>
0.000444 s⁻¹

$$$$
>  <mutation_list>
A12U A36G

>  <self-cleavage kobs at 160 uM GlcN6P>
< 1e-05 s⁻¹

$$$$
>  <mutation_list>
U46G C58G

>  <self-cleavage kobs at 160 uM GlcN6P>
< 1e-05 s⁻¹

$$$$
>  <mutation_list>
U45C

>  <self-cleavage kobs at 160 uM GlcN6P>
0.000232 s⁻¹

$$$$
>  <mutation_list>
A48U G60U

>  <self-cleavage kobs at 160 uM GlcN6P>
< 1e-05 s⁻¹

$$$$
>  <mutation_list>
G41U C68U U69C

>  <self-cleavage kobs at 160 uM GlcN6P>
< 1e-05 s⁻¹

$$$$
>  <mutation_list>
A6G U47C U55C C71U

>  <self-cleavage kobs at 160 uM GlcN6P>
< 1e-05 s⁻¹

$$$$
>  <mutation_list>
C50G C71U

>  <self-cleavage kobs at 160 uM GlcN6P>
0.000107 s⁻¹

$$$$
>  <mutation_list>
A15C U31C

>  <self-cleavage kobs at 160 uM GlcN6P>
0.000136 s⁻¹

$$$$
>  <mutation_list>
G43U U49C

>  <self-cleavage kobs at 160 uM GlcN6P>
< 1e-05 s⁻¹

$$$$
>  <mutation_list>
C8A U31G G62A

>  <self-cleavage kobs at 160 uM GlcN6P>
< 1e-05 s⁻¹

$$$$
